Quick list: GI50 per entry.
- System: HOP-92
- protocol: NCI tumour cell line growth inhibition, 48 h
Calls of active or inactive are those of the source. No stated cut-off is given here; in the data, active = GI50 up to about 1.1 µM and inactive = higher.

Example compounds with recorded GI50:
Challenge: Param item = Cc1cccc(Nc2cn(CCOc3ccccc3)c(=O)n(CCOc3ccccc3)c2=O)c1 ; retrieve measured GI50.
Response given: 56.2 µM (inactive)

Challenge: Param item = O=C(/C(=C/c1ccc(Cl)cc1)c1ccccc1)c1ccccc1 ; retrieve measured GI50.
Response given: 13.9 µM (inactive)

Attention now turns to another entry.
Challenge: Param item = CCOC(=O)c1cn(Cc2ccccc2)c(=O)n1Cc1ccccc1 ; retrieve measured GI50.
Response given: > 100 µM (inactive)
